Target Desc: porcine APEH (Sus scrofa)
Sequence (P19205 1-732): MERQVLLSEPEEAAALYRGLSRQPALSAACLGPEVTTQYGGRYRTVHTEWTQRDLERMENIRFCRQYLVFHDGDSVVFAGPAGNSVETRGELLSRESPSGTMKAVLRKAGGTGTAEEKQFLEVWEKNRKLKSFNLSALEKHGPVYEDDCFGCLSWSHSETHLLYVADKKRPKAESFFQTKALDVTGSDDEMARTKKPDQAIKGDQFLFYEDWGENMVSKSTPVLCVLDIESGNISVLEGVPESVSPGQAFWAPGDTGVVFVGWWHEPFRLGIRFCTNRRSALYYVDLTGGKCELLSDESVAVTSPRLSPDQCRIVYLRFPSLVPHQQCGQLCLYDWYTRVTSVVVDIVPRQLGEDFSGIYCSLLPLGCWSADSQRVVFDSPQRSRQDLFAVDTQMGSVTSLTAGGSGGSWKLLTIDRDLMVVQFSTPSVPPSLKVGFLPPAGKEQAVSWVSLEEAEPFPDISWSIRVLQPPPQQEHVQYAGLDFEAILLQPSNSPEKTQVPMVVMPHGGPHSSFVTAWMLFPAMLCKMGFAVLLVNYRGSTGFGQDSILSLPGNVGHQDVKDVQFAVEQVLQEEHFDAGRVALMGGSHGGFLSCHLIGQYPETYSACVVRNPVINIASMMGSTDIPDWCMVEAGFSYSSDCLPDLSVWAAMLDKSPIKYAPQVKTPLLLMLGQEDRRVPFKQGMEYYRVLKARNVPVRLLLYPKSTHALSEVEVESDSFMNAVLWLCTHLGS

Compound: CCCCC/C=C\C=C\CCCCCCCCC(=O)O [t10c12-CLA, trans10-cis12 CLA]
Target Desc: porcine APEH (Sus scrofa)
IC50: 105 µM
